Test system: Tov-21-G
Experiment Description: Primary qHTS to identify gynecologic anti-cancer compounds using libraries of approved drugs and bioactive compounds (AID 1345084); note: nearly all actives have a fitted effect of over 55% in size
Test Context: Gynecologic cancer cell panel viability, ATPlite luminescence, 48 h; series mostly up to 57.5 µM
Results filed as inconclusive are left out. The source made the active and inactive calls. Calls come from the whole dose curve; as a rule, active = well fitted cell-killing curve with a large enough effect; inconclusive = small, poorly fitted or top-dose-only effect, or effect the other way; inactive = flat fitted curve, though single readings scatter.
Please answer using one outcome listed in yes (1) for active, no (0) for inactive

[
  {
    "Compound": "Cc1oncc1C(=O)Nc1ccc(C(F)(F)F)cc1",
    "Assigned Class": "yes (1)"
  },
  {
    "Compound": "CC(C)OC(=O)C1=CN(C(=O)c2ccc(F)c(F)c2)CC(C)(C)c2c1[nH]c1ccccc21",
    "Assigned Class": "no (0)"
  },
  {
    "Compound": "CCCCNc1cc(C(=O)O)cc(S(N)(=O)=O)c1Oc1ccccc1",
    "Assigned Class": "no (0)"
  },
  {
    "Compound": "CC(C)(C)NCC(O)c1ccc(O)c(CO)c1 (stereo unspecified)",
    "Assigned Class": "no (0)"
  },
  {
    "Compound": "CN(C(=O)c1ccc(F)cc1C(F)(F)F)C1CCN(c2nnc(-c3ccnn3C)c3ccccc23)CC1",
    "Assigned Class": "no (0)"
  }
]

Proceed to the following item.
Input line: Answer briefly: the call reported for Cc1cc(SCc2sc(-c3ccc(C(F)(F)F)cc3)nc2C)ccc1OCC(=O)O in this assay.
Output line: no (0)

###

Experiment Description: Quantitative High-Throughput drug screen in 47 multiple myeloma cell lines against the NCATS MIPE library collection: LP1_DSMZ cell viability assay (AID 1918982); note: nearly all actives have a fitted effect of over 35% in size
Test Context: LP1 myeloma viability, CellTiter-Glo ATP luminescence, 48 h; series mostly up to 45.8 µM
Records with an inconclusive call do not appear. Active and inactive are the calls of the source. Calls come from the whole dose curve; as a rule, active = well fitted cell-killing curve with a large enough effect; inconclusive = small, poorly fitted or top-dose-only effect, or effect the other way; inactive = no such curve, though single readings can be large or run the other way.
Please answer using one outcome listed in 1 for active, -1 for inactive

Solved entries (count: 2):
[
  {
    "Structure Smiles String": "O=C(C1CC1)N1CC[C@@H](Cn2c(-c3ccc(-c4ccc5occc5c4)cc3)nc3cnccc32)C1",
    "Assigned Class": 1
  },
  {
    "Structure Smiles String": "NC[C@H](O)c1ccc(O)c(O)c1",
    "Assigned Class": -1
  }
]

Input line: Answer briefly: the call reported for Cc1cnc(Nc2ccc(OCCN3CCCC3)cc2)nc1Nc1cccc(S(=O)(=O)NC(C)(C)C)c1 in this assay.
Output line: -1

###

Experiment Description: Quantitative High-Throughput drug screen in 47 multiple myeloma cell lines against the NCATS MIPE library collection: KMS11_JCRBsus cell viability assay (AID 1919873); note: nearly all actives have a fitted effect of over 50% in size
Test Context: KMS11 myeloma viability, CellTiter-Glo ATP luminescence, 48 h; series mostly up to 45.8 µM
Inconclusive results are not listed. The source made the active and inactive calls. Calls come from the whole dose curve; as a rule, active = well fitted cell-killing curve with a large enough effect; inconclusive = small, poorly fitted or top-dose-only effect, or effect the other way; inactive = no such curve, though single readings can be large or run the other way.
Please answer using one outcome listed in active, inactive

Solved entries (count: 4):
[
  {
    "Molecule": "CCC(C)n1ncn(-c2ccc(N3CCN(c4ccc(OC[C@H]5CO[C@](Cn6cncn6)(c6ccc(Cl)cc6Cl)O5)cc4)CC3)cc2)c1=O (stereo partly specified)",
    "Assigned Class": "active"
  },
  {
    "Molecule": "CCN(c1ccccc1)c1cc(NC)[n+](C)c(C)n1",
    "Assigned Class": "inactive"
  },
  {
    "Molecule": "COc1cccc2cc(-c3nc(C4CCC(C(=O)O)CC4)n4ncnc(N)c34)[nH]c12 (stereo unspecified)",
    "Assigned Class": "active"
  },
  {
    "Molecule": "O=C1CCc2cc(OCCCCc3nnnn3C3CCCCC3)ccc2N1",
    "Assigned Class": "inactive"
  }
]

Input line: Answer briefly: the call reported for C[C@H](NC(=O)Cc1cc(F)cc(F)c1)C(=O)N[C@@H]1C(=O)N(C)c2ccccc2-c2ccccc21 in this assay.
Output line: inactive

Input line: Answer briefly: the call reported for O=C(Nc1nc2ccccc2n1CCN1CCOCC1)c1cccc([N+](=O)[O-])c1 in this assay.
Output line: inactive

###

Experiment Description: qHTS of pediatric cancer cell lines to identify multiple opportunities for drug repurposing: Primary screen for TC32 cells (AID 1347089); note: % is set by controls: 0 for no effect and ±100 for the full control effect; nearly all actives have a fitted effect of over 60% in size
Test Context: TC32 Ewing sarcoma viability, CellTiter-Glo luminescence, 48 h; series mostly up to 45.8 µM
Results filed as inconclusive are left out. The source made the active and inactive calls. Calls come from the whole dose curve; as a rule, active = well fitted cell-killing curve with a large enough effect; inconclusive = small, poorly fitted or top-dose-only effect; inactive = flat fitted curve, though single readings scatter.
Please answer using one outcome listed in active, inactive

Input line: Answer briefly: the call reported for N[C@@H]1CONC1=O in this assay.
Output line: inactive

###

Experiment Description: qHTS profiling of the MIPE4 collection as inhibitors of Plasmodium falciparum (DD2) proliferation (AID 743345)
Test Context: P. falciparum Dd2 in erythrocytes, SYBR Green DNA, 72 h; at 28.5 µM (top of the series) unless noted
# parasite growth remaining, % of DMSO control (lower = more inhibition) listing for each entry below

[
  {
    "Compound": "Cc1ccc(NC(=O)c2cccc(C(C)(C)C#N)c2)cc1Nc1ccc2ncn(C)c(=O)c2c1",
    "Result": "39.9%"
  }
]

Input line: Which parasite growth remaining, % of DMSO control (lower = more inhibition) value is on record for Fc1ccc(Cl)cc1-c1nc(Nc2ccncc2)c2nccnc2n1 ?
Output line: 37%

Input line: Which parasite growth remaining, % of DMSO control (lower = more inhibition) value is on record for CCn1c(-c2nonc2N)nc2cnc(Oc3cccc(NC(=O)c4ccc(OCCN5CCOCC5)cc4)c3)cc21 ?
Output line: 57.9%

Input line: Which parasite growth remaining, % of DMSO control (lower = more inhibition) value is on record for O=C(C=Cc1ccc(/C=C/C(=O)Nc2ccc(C3=NCCN3)cc2)cc1)Nc1ccc(C2=NCCN2)cc1 ?
Output line: 39%

Input line: Which parasite growth remaining, % of DMSO control (lower = more inhibition) value is on record for Cc1ccccc1C(C(=O)NC1CCCC1)N(C(=O)Cn1cnc2ccccc21)c1cccc(F)c1 (stereo unspecified) ?
Output line: 65.6%

Input line: Which parasite growth remaining, % of DMSO control (lower = more inhibition) value is on record for C#Cc1cccc(Nc2ncnc3cc(OCCOC)c(OCCOC)cc23)c1 ?
Output line: 50.4%

###

Experiment Description: qHTS drug screen for cell cycle checkpoint inhibitors in PARPi-resistant BRCA-mutant ovarian cancer cell lines. (AID 1963452)
Test Context: PEO1/OlaR viability, CellTiter-Glo luminescence, 96 h; measured here: PEO1 parental Z-AUC; stronger effect = lower value
Recorded Endpoint: Z-AUC
No unit in the answer, only the number.

[
  {
    "Structure Smiles String": "O=C(c1cc(Cc2n[nH]c(=O)c3ccccc23)ccc1F)N1CCN(C(=O)C2CC2)CC1",
    "Recorded Endpoint": "Z-AUC",
    "Recorded Number": -0.378
  },
  {
    "Structure Smiles String": "Nc1cccc(S(=O)(=O)N2CCCN(S(=O)(=O)c3ccc4c(c3)OCCO4)CC2)c1",
    "Recorded Endpoint": "Z-AUC",
    "Recorded Number": 0.843
  }
]

Input line: Which Z-AUC value is on record for N[C@@H]1CONC1=O ?
Output line: 1.55

###

Test system: NIH3T3
Experiment Description: Cytotoxic Profiling of Annotated Libraries Using Quantitative High-Throughput Screening (AID 1296008); note: nearly all actives have a fitted effect of over 60% in size
Test Context: Five cell lines viability, CellTiter-Glo ATP luminescence, 48-72 h
Results filed as inconclusive are left out. Activity calls are given as the source filed them. The call rests on the fitted dose curve; in most records, active means well fitted inhibition curve with a large enough effect; inconclusive means small, poorly fitted or top-dose-only effect; inactive means flat fitted curve, though single readings scatter.
Please answer using one outcome listed in yes (1) = active, no (0) = inactive

Solved entries (count: 4):
[
  {
    "Compound": "c1ccc(-c2nn3c(c2-c2ccnc4cc(OCCN5CCOCC5)ccc24)CCC3)nc1",
    "Test Target": "NIH3T3",
    "Assigned Class": "yes (1)"
  },
  {
    "Compound": "CCN(CC)CCCC(C)Nc1ccnc2cc(Cl)ccc12 (stereo not given)",
    "Test Target": "NIH3T3",
    "Assigned Class": "no (0)"
  },
  {
    "Compound": "COc1ccc(-c2ccc3c(N4CCOCC4)nc(N4C[C@@H](C)O[C@@H](C)C4)nc3n2)cc1CO",
    "Test Target": "NIH3T3",
    "Assigned Class": "yes (1)"
  },
  {
    "Compound": "O=C1CCC(N2C(=O)c3ccccc3C2=O)C(=O)N1 (stereo not given)",
    "Test Target": "NIH3T3",
    "Assigned Class": "no (0)"
  }
]

Input line: Answer briefly: the call reported for C[C@@H]1CN(Cc2ccc(F)cc2)[C@@H](C)CN1C(=O)c1cc2c(C(=O)C(=O)N(C)C)cn(C)c2cc1Cl in this assay.
Output line: no (0)

###

Experiment Description: Cytotoxicity counterscreen for NFkB agonists and antagonists (AID 624476);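 note: cells exposed to compound for 48 hours; % is set by controls: 0 for no effect and ±100 for the full control effect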
Test Context: NFkB reporter cell line viability counterscreen; series mostly up to 46.1 µM
Inconclusive results are not listed. Active and inactive are the calls of the source. Calls come from the whole dose curve; as a rule, active = well fitted curve in the direction sought with a large enough effect; inconclusive = small, poorly fitted or top-dose-only effect, or another doubt; inactive = no such curve, though single readings can be large or run the other way.
Please answer using one outcome listed in active, inactive

[
  {
    "Molecule": "CN[C@@H](C)C(=O)N[C@H]1CCCC[C@H]2CC[C@@H](C(=O)N[C@@H](c3ccccc3)c3cn(CCCCc4ccc(CCCCn5cc([C@@H](NC(=O)[C@@H]6CC[C@@H]7CCCC[C@H](NC(=O)[C@H](C)NC)C(=O)N76)c6ccccc6)nn5)cc4)nn3)N2C1=O",
    "Assigned Class": "inactive"
  },
  {
    "Molecule": "CCOc1cc(N2CCC(O)CC2)ccc1Nc1ncc2c(n1)N(C)c1ccccc1C(=O)N2C",
    "Assigned Class": "inactive"
  }
]

Proceed to the following item.
Input line: Answer briefly: the call reported for Nc1ncnc2nc(-c3ccc(N4CCOCC4)nc3)cc(-c3cccc(Br)c3)c12 in this assay.
Output line: inactive
